# Test system: MCF7 breast
# EXPERIMENTAL PROTOCOL: NCI tumour cell line growth inhibition, 48 h; in the data active = GI50 below about 0.43 µM; inactive = the rest
Use one of these outcomes when replying: active, inactive

Known results for molecules:
[
  {
    "MOLECULE": "COc1cc2c(cc1OC)-c1c(c3ccc([N+](=O)[O-])cc3c(=O)n1CCCN)C2=O",
    "QUALITATIVE LABEL": "active"
  },
  {
    "MOLECULE": "COc1ccc2[nH]cc(-c3nc(-c4c[nH]c5ccncc45)cs3)c2c1",
    "QUALITATIVE LABEL": "inactive"
  },
  {
    "MOLECULE": "O=C(/C=C\\c1ccc2ccccc2n1)c1cc(Cl)ccc1O",
    "QUALITATIVE LABEL": "inactive"
  },
  {
    "MOLECULE": "O=[N+]([O-])/C=C/c1ccc([N+](=O)[O-])cc1",
    "QUALITATIVE LABEL": "inactive"
  },
  {
    "MOLECULE": "COc1cc(/C=C2\\C(=O)Nc3ccccc32)cc(OC)c1OC",
    "QUALITATIVE LABEL": "inactive"
  }
]

Returns: the outcome recorded for C=C1C(=O)O[C@H]2C[C@@H]1CCC1(C)OC1CC/C(C)=C/CC[C@H]2C (stereo partly specified) in this assay. inactive

Returns: the outcome recorded for CCOC(=O)C1=C(c2ccccc2)N(c2ccc(OC)cc2)[C@]2(C#N)C(O)=C(Cl)C(Cl)=C(O)[C@]12C#N in this assay. inactive

Returns: the outcome recorded for Nc1ccc(-n2c(=O)oc3ccc(Cl)cc3c2=O)c(Cl)c1 in this assay. active

Returns: the outcome recorded for Oc1ccc(CN(Cc2ccc(C(F)(F)F)cc2)Cc2ccc(O)c3ncccc23)c2cccnc12 in this assay. active

Returns: the outcome recorded for CCCCCCN1CCN(Cc2ccc(N(CC)CC)cc2)C(=O)C1=O in this assay. inactive

Returns: the outcome recorded for Cc1cc2nc3c4cccc(O)c4n(CCN(C)C)c3nc2cc1C in this assay. inactive
